src = PubChem BioAssay AID1996

details: buffer; pH 7.4; 200.0 µM
Measured solubility kinetic by item
ASSAY_ENDPOINT: solubility kinetic

• O=C1CCC(=O)N1CCSC(=S)N1CCOCC1 = > 43.3 µg/mL
• CC(=O)N/C(=C\c1ccccc1)C(=O)OCc1ccc(C)cc1 = > 46.4 µg/mL
• Cc1ccccc1SCC(=O)OCC(=O)NCc1ccccc1 = > 49.4 µg/mL
• COc1ccc(C(=O)N2CCN(C(=O)C3CCCO3)CC2)cc1[N+](=O)[O-] (stereo unspecified) = > 54.5 µg/mL
• N#CC1(NC(=O)COC(=O)C2=COCCO2)CCCCC1 = > 44.1 µg/mL
• O=C(COC(=O)C1C2CC3OC(=O)C1C3C2)Nc1ccccc1 (stereo unspecified) = > 47.3 µg/mL
• CCCc1nnc(SCC(=O)NC2CC2)n1CC = > 40.3 µg/mL
• CNC(=O)c1c(NC(=O)C2=COCCO2)sc(C)c1C = > 44.5 µg/mL
• OC(CNCc1ccccc1)(c1ccccc1)c1ccccc1 = > 45.5 µg/mL
• O=C(CNC(=O)c1cccc(F)c1)N/N=C/c1cccnc1 = > 45 µg/mL
• CC(=O)Nc1cccc(NS(=O)(=O)c2c(C)noc2C)c1 = > 46.4 µg/mL

###

settings: buffer; pH 7.4; 200.0 µM
Measured solubility kinetic by item
ASSAY_ENDPOINT: solubility kinetic

• CC1CCN(C(=O)CSc2nc(C3CC3)nc3ccccc23)CC1 = > 51.2 µg/mL
• Cc1ccccc1NC(=O)C(=O)NCCCN1CCOCC1 = > 45.8 µg/mL
• O=C1COc2ccc(C(=O)C[n+]3cccc(O)c3)cc2N1.[Cl-] = > 48.1 µg/mL
• NS(=O)(=O)c1ccc(NC(=O)CN2C(=O)CCC2=O)cc1 = > 46.7 µg/mL
• O=C(NCCc1ccccc1)c1cc2ccccc2oc1=O = < 0.6 µg/mL
• CCC(=O)Nc1ccc(NC(=O)c2ccc3ccccc3c2)cc1 = < 0.3 µg/mL
• O=C(Nc1ccccc1Br)c1cc[n+]([O-])cc1 = > 44 µg/mL
• CCOc1ccc(NC(=O)CSc2ncn[nH]2)cc1 = > 41.7 µg/mL
• OC(c1ccccc1)c1nc2ccccc2[nH]1 (centres undefined) = > 33.6 µg/mL

###

Measured solubility kinetic by item
settings: buffer; pH 7.4; 200.0 µM
ASSAY_ENDPOINT: solubility kinetic

* Cc1ccc(S(=O)(=O)NC(=O)N(C)C2CCCCC2)cc1 | > 46.6 µg/mL
* O=C(CN1N=C(c2ccccc2)CCC1=O)NCc1cccs1 | > 49.1 µg/mL
* O=C(NCCCN1CCCC1=O)c1cc(-c2ccc(F)cc2)nc2ccccc12 | > 58.7 µg/mL
* CCCc1cc(=O)[nH]c(SCC(=O)Nc2cc(C)on2)n1 | > 46.3 µg/mL
* COc1ccc(-c2cc3cc(OC)c(OC)cc3c(C)n2)cc1C | < 0.7 µg/mL

###

settings: buffer; pH 7.4; 200.0 µM
ASSAY_ENDPOINT: solubility kinetic

- O=C1CCC(C(=O)NCc2ccc3c(c2)OCO3)N1 (stereo not given): > 0.0393 mg/mL
- COc1cc2ccccc2cc1C(=O)Nc1ccc(C)cn1: < 0.0003 mg/mL
- Cn1c(O)c(C=NCCN2CCNCC2)c(=O)[nH]c1=O: > 0.0422 mg/mL
- COCCCNC(=O)c1ccccc1C(F)(F)F: > 0.0392 mg/mL
- N#Cc1ccc(Oc2ncccn2)cc1: > 0.0296 mg/mL

###

conditions: buffer; pH 7.4; 200.0 µM
Measured solubility kinetic by item
ASSAY_ENDPOINT: solubility kinetic

* COc1ccccc1CNC(=O)c1ccc(C)s1 | > 39.2 µg/mL
* Cc1ccc(Nc2cc(C)nc3ccccc23)c(C)c1 | > 39.4 µg/mL
* Cc1c(C(=O)N2CCN(C)CC2)oc2ccc(Br)cc12 | > 50.6 µg/mL
* COc1cccc(CN(C)C(=O)CCN=C2NS(=O)(=O)c3ccccc32)c1 | > 58.1 µg/mL
* Cc1cccn2c(=O)c(C=O)c(N3CCN(C)CC3)nc12 | > 42.9 µg/mL
* COc1ccc(NC(=O)Nc2ccc3c(c2)CCC3)c(OC)c1 | < 0.3 µg/mL
* Cc1cccc(N2C(S)=C(C#N)C(=O)NC2c2ccco2)c1 (stereo not given) | > 46.7 µg/mL
* Nc1ccc(C(=O)O)cc1S(=O)(=O)O | > 32.6 µg/mL
* CN(C(=O)COC(=O)c1cccnc1Cl)C1CCCCC1 | > 46.6 µg/mL
* CC1CCN(C(=O)COc2cccc3c2CCN(C)C3=O)CC1 | > 47.5 µg/mL
* O=C(c1ncc[nH]1)c1cccs1 | > 26.7 µg/mL
* S=c1[nH]c2ccccc2[nH]1 | > 22.5 µg/mL
* NC(=O)CCCc1nc(-c2ccccc2)no1 | > 34.7 µg/mL
* CCN1CCN(CCC(=O)Nc2cc(C)ccc2C)CC1 | > 43.4 µg/mL
* Cc1ccc2cc(S(=O)(=O)NCCCN3CCOCC3)ccc2c1 | > 52.3 µg/mL
* N#CC(C(=S)Nc1ccccc1)c1nc2ccccc2[nH]1 (stereo not given) | 0.9 µg/mL
* Cc1cc(C)cc(OCC(=O)NC(C)c2ccccc2)c1 (stereo not given) | 28.8 µg/mL
* CC1(c2ccc3ccccc3c2)NC(=O)NC1=O (stereo not given) | 29.3 µg/mL
* O=C(CSc1ncnc2ccccc12)NCC(=O)c1ccccc1 | 7.1 µg/mL
* CCSc1ncc(Cl)c(C(=O)Nc2ccccc2C)n1 | 0.5 µg/mL
* CC(NS(=O)(=O)c1ccccc1)C1CC2CCC1C2 (stereo not given) | 6 µg/mL
* Cc1nc(C(=O)NCC(=O)c2ccc(Cl)cc2)c(C(F)(F)F)o1 | 8.4 µg/mL
* CCOC(=O)Cc1csc(NC(=O)CCCC(=O)O)n1 | > 45 µg/mL
* CC(=O)N1c2ccc(C)cc2C(c2ccccc2)CC1C (stereo not given) | 40.6 µg/mL
* O=[N+]([O-])c1cnccc1NC1CCCCC1 | 29.1 µg/mL

###

conditions: buffer; pH 7.4; 200.0 µM
ASSAY_ENDPOINT: solubility kinetic

- O=C(CN1CCN(Cc2ccccc2)CC1)Nc1ccccc1: > 46.4 µg/mL
- CCCNC(=O)Nc1cccc(NC(C)=O)c1: > 35.3 µg/mL
- Cc1ccccc1NC(=O)CSc1nnc(-c2ccccn2)o1: > 49 µg/mL
- Nc1cccc(CP(=O)(c2ccccc2)c2ccccc2)c1: > 46.1 µg/mL
- Cc1ccc(NC(=O)C(=O)c2c[nH]c3ccccc23)cc1: < 0.3 µg/mL
- Fc1c(F)c(F)c(NC2=NCCCCC2)c(F)c1F: > 41.7 µg/mL
- COc1ccc(CNc2ncnc3ccccc23)cc1: > 39.8 µg/mL
- O=Cc1c(N2CCC3(CC2)OCCO3)nc2ccccn2c1=O: > 47.3 µg/mL
- Brc1nc(-c2ccccc2)nc(-c2ccccc2)c1Br: < 0.4 µg/mL
- CCC1CCC/C1=N\NC(=O)c1ccoc1C (stereo unspecified): > 35.1 µg/mL
- CC(=O)NC(CC(=O)NCc1ccncc1)c1ccccc1 (stereo unspecified): > 44.6 µg/mL
- Cc1cc(Br)ccc1N=C1NC(=O)CS1: > 42.8 µg/mL
- CCCCCc1c(C)[nH]c2nc3ccccc3n2c1=O: 0.3 µg/mL
- Cc1cnc(NC(=O)/C=C/c2ccc(Br)o2)s1: 0.8 µg/mL
- Cc1ccc(C(=O)NCC(=O)NCCCc2ccccc2)cc1: > 46.6 µg/mL
- CCCCn1c(O)c(C(C)=NCc2ccc3c(c2)OCO3)c(=O)[nH]c1=O: 0.6 µg/mL
- O=C(CSc1ccc(C(F)(F)F)cc1[N+](=O)[O-])N1CCOCC1: 22.9 µg/mL
- O=c1[nH]c(=S)[nH]c2scc(-c3ccc(Br)cc3)c12: 9.1 µg/mL
- Cc1ccc2nc(NC(=O)COC(=O)c3ccccn3)sc2c1: 32.1 µg/mL
- CCCCn1c(=O)c(C(=O)NC(C)c2ccccc2)c(O)c2ccccc21 (stereo unspecified): < 0.4 µg/mL
- O=C(CN1CCCC1)NC(=O)NC1CCCC1: > 35.9 µg/mL
- COC(=O)C1=C(C)NC(=O)NC1c1ccc2ccccc2c1 (stereo unspecified): < 0.3 µg/mL
- CN(CC(=O)Nc1ccc(F)cc1)CC(=O)N1CCCCC1: > 46.1 µg/mL
- COc1ccc(OCCn2cc(C=O)c3ccccc32)cc1: 14.4 µg/mL
- COc1ccc(-c2csc(Nc3ccccn3)n2)cc1: < 0.2 µg/mL
- COc1cc(C)nc(-n2nc(C)cc2OC)n1: > 35.1 µg/mL

###

settings: buffer; pH 7.4; 200.0 µM
ASSAY_ENDPOINT: solubility kinetic

- Cc1ccc(C(=O)N(CN2CCCC2=O)c2ccccc2)cc1: > 46.3 µg/mL
- CCCc1cc(=O)oc2c(CN(CC)CC)c(O)c(Cl)cc12: > 48.6 µg/mL
- COc1ccc(CNC(=O)COC(=O)c2ccccn2)cc1: > 45 µg/mL
- Cc1cc(C)cc(NC(=O)c2cccnc2)c1: > 33.9 µg/mL
- CCc1nnc(NC(=O)CCC(=O)NC2CC2)s1: > 40.2 µg/mL
- CC(C)NC[C@H](O)COc1cccc2ccccc12.Cl: > 44.4 µg/mL
- COc1ccc(/C=C/C(=O)N[C@H](C(=O)O)C(C)C)cc1: > 41.6 µg/mL
- Cc1ccc(NC(=O)COC(=O)c2ccco2)cc1S(=O)(=O)N1CCOCC1: > 61.3 µg/mL
- COC(=O)c1ccc(NC(=O)c2ccc3c(c2)C(=O)N(C)C3=O)cc1: < 0.4 µg/mL
- CC12CN3CC(C)(CN(C1)C3c1ccccc1)C2O (configuration not stated): > 38.8 µg/mL
- Cn1cccc1C(=O)NCCc1ccccc1: > 34.2 µg/mL
- O=C(NCCc1ccc(Cl)cc1)c1cnccn1: > 39.3 µg/mL
- COc1ccc(C(=O)N[C@H](C(=O)Nc2sccc2C(N)=O)C(C)C)cc1: > 56.3 µg/mL
- COc1ccc(NC(=O)CCCC2CCCCC2)c(OC)c1: < 0.7 µg/mL
- CCOc1ccc(C(=O)NCCc2cnc[nH]2)cc1: > 38.9 µg/mL
- CCC(=O)c1c(NC(CC)CO)cc(C)oc1=O (configuration not stated): > 38 µg/mL
- CC(C)CN1C(=O)NC2(CCCc3ccccc32)C1=O (configuration not stated): > 40.9 µg/mL
- Cc1ccc(S(=O)(=O)CCC(=O)NC2CCCC2)cc1: > 44.3 µg/mL
- Cc1cc(C)c2c(n1)sc1c(=O)n(CC(=O)c3ccccc3)cnc12: < 0.2 µg/mL
- CCOP(=O)(Cc1ccc(C#N)o1)OCC: > 36.5 µg/mL
- Nc1cc(=O)[nH]c(SCC(=O)Nc2ccc(S(=O)(=O)N3CCCC3)cc2)n1: > 61.4 µg/mL
- CCOc1ccc(Br)cc1S(=O)(=O)NC1=NCCCCC1: > 56.3 µg/mL
